- assaySystem: Hypoxia inducible factors; HIF-1-alpha, HIF-2-alpha (Homo sapiens, UniProt Q16665+Q99814)
- experimentalProtocol: Inhibition of HIF1 signaling in human U251 cells expressing VEGF by VEGF promoter-driven PLAP reporter gene assay
- Format: cell-based
- runParameters: u-251
Please note: IC50 exactly at 30 nM is NOT MET. Only values below 30 nM get MET.

O=C(Nc1ccc(C(F)(F)F)cc1)c1cccc(CN2CCOCC2)c1
NOT MET
O=C(Nc1ccc(C(F)(F)F)cc1)c1ccc(CN2CCOCC2)s1
NOT MET
O=C(Nc1ccc(C(F)(F)F)cc1)c1ccc(CN2CCOCC2)cc1
NOT MET
O=C(Nc1ccc(C(F)(F)F)cc1)c1ccc(CN2CCN(Cc3cccnc3)CC2)cc1
MET

Please look at the following compound next.
Ask: Strictly below 30 nM in IC50? O=C(Nc1ccc(C(F)(F)F)cc1)c1ccc(CC2CCN(Cc3ccncc3)CC2)cc1
Result: NOT MET

* * *

- assaySystem: Hypoxia inducible factors; HIF-1-alpha, HIF-2-alpha (Homo sapiens, UniProt Q16665+Q99814)
- experimentalProtocol: Inhibition of HIF1 signaling in human U251 cells expressing VEGF by VEGF promoter-driven PLAP reporter gene assay
- Assay type: cell-based
- runParameters: u-251
For each entry below, report its IC50 value.

Below, each entry is followed by its recorded IC50 result.
Nc1ncccc1C(=O)N1CCN(Cc2ccc(C(=O)Nc3ccc(C#CC45CC6CC(CC(C6)C4)C5)cc3)cc2)CC1
5.8 nM
O=C(Nc1ccc(C#CC23CC4CC(CC(C4)C2)C3)cc1)c1ccc(CN2CCN(Cc3cccnc3)CC2)cc1
0.97 nM
Ic1ccc(NCc2ccc(CN3CCOCC3)cc2)cc1
2500 nM
O=C(Nc1ccc(C(F)(F)F)cn1)c1ccc(CN2CCOCC2)cc1
4000 nM
O=C(Nc1ccc(C#CC2CCCCC2)cc1)c1ccc(CN2CCN(Cc3cccnc3)CC2)cc1
3.1 nM
C[C@H]1CN(Cc2cccnc2)CCN1Cc1ccc(C(=O)Nc2ccc(C(F)(F)F)cc2)cc1
3.3 nM
C[C@@H]1CN(Cc2cccnc2)CCN1Cc1ccc(C(=O)Nc2ccc(C(F)(F)F)cc2)cc1
13 nM
FC(F)(F)c1ccc(/C=C/c2ccc(CN3CCOCC3)cc2)cc1
880 nM
O=C(Nc1ccccc1I)c1ccc(CN2CCOCC2)cc1
> 20000 nM

Attention now shifts to the item below.
Ask: Report IC50 for CN(CCN(C)Cc1cccnc1)Cc1ccc(C(=O)Nc2ccc(C(F)(F)F)cc2)cc1 please.
Result: 120 nM

* * *

- assaySystem: Hypoxia inducible factors; HIF-1-alpha, HIF-2-alpha (Homo sapiens, UniProt Q16665+Q99814)
- experimentalProtocol: Inhibition of HIF1 signaling in human U251 cells expressing VEGF by VEGF promoter-driven PLAP reporter gene assay
- Format: cell-based
- runParameters: u-251
Please go through the items and note down their log10(IC50).
The figures below represent log10 of IC50, where IC50 is stated in µM.

O=C(Nc1ccc(CN2CCOCC2)cc1)c1ccc(I)cc1
0.40

I have 6 compounds here; please give me log10(IC50) for each one.
1. COCc1ccc(CN2CCN(Cc3ccc(C(=O)Nc4ccc(C#CC56CC7CC(CC(C7)C5)C6)cc4)cc3)[C@@H](C)C2)cn1
2. C[C@H]1CN(Cc2cccnc2)CCN1Cc1ccc(C(=O)Nc2ccc(C#CC34CC5CC(CC(C5)C3)C4)cc2)cc1
3. O=C(Nc1ccc(C#Cc2ccccc2)cc1)c1ccc(CN2CCN(Cc3cccnc3)CC2)cc1
4. O=C(Nc1ccccc1)c1ccc(CN2CCOCC2)cc1
5. O=C(Nc1ccc(I)cc1)c1ccc(CN2CCOCC2)cc1
6. COCCOCc1ccc(CN2CCN(Cc3ccc(C(=O)Nc4ccc(C#CC56CC7CC(CC(C7)C5)C6)cc4)cc3)[C@@H](C)C2)cn1

Result:
1. -2.96
2. -2.59
3. -2.10
4. 0.73
5. -0.25
6. -3.33

* * *

Assignment: determine reported IC50 for the given compounds.
- assaySystem: Hypoxia inducible factors; HIF-1-alpha, HIF-2-alpha (Homo sapiens, UniProt Q16665+Q99814)
- experimentalProtocol: Inhibition of HIF1 signaling in human U251 cells expressing VEGF by VEGF promoter-driven PLAP reporter gene assay
- Format: cell-based
- runParameters: u-251
One number for each entry, in µM.

The following compounds have reported results that may help.
C[C@@H]1CN(Cc2ccc(C(=O)Nc3ccc(C(F)(F)F)cc3)cc2)CCN1Cc1cccnc1
0.03
Nc1ncccc1C(=O)N1CCN(Cc2ccc(C(=O)Nc3ccc(C#Cc4ccccc4)cc3)cc2)CC1
0.021
O=C(Nc1ccc(C(F)(F)F)cc1)c1ccc(CN2CCN(Cc3ccncc3)CC2)cc1
0.0079
CN(C(=O)c1ccc(CN2CCOCC2)cc1)c1ccc(I)cc1.Cl
2.2
C[C@H]1CN(Cc2ccc(C(=O)Nc3ccc(C(F)(F)F)cc3)cc2)CCN1Cc1cccnc1
0.035

Now turn to the next compound.
Ask: What does the data say about its IC50? Entry: COc1ccc(NC(=O)c2ccc(CN3CCOCC3)cc2)cc1
Result: 13.9
